# test_name: Phase I dose-escalating study, plasma pharmacokinetics in patients with solid tumor
# Type: in vivo, human
# assay_context: human, plasma, 100 mg, 100 mg QD (4/1), C1D28 (n = 6), plasma; read-out: AUC(0-24), mean (% CV)
measurement_type: AUC(0-t) (ng·h/mL)
One number for each entry, in ng·h/mL.

# input compound: Cc1[nH]c(/C=C2\C(=O)Nc3ccc(F)cc32)c(C)c1C(=O)NC[C@H](O)CN1CCOCC1 [compound 1] ; wanted: its AUC(0-t)
6050

###

# test_name: Phase I dose-escalating study, plasma pharmacokinetics in patients with solid tumor
# Assay type: in vivo, human
# assay_context: human, plasma, 25 mg, 25 mg QD 4/1 (n = 6), nominal time 96 h; read-out: Mean plasma concentration following the last dose on cycle 1 day 28
measurement_type: concentration at 96 h (ng/mL)
Give bare numbers, in ng/mL.

# input compound: Cc1[nH]c(/C=C2\C(=O)Nc3ccc(F)cc32)c(C)c1C(=O)NC[C@H](O)CN1CCOCC1 ; wanted: its concentration at 96 h
1.58

###

# test_name: Phase I dose-escalating study, plasma pharmacokinetics in patients with solid tumor
# Type: in vivo, human
# assay_context: human, plasma, 100 mg, 100 mg QD 4/1 (n = 6), nominal time 144 h; read-out: Mean plasma concentration following the last dose on cycle 1 day 28
# Protocol: Cmax values, or maximum total plasma concentrations, of a compound of formula 1 can be measured according to techniques well known to those skilled in the art. For example, after a compound of formula 1 has been administered to a mammal, blood samples can be taken at fixed time points over a period of time (e.g. 24 hours) and the serum or plasma concentration of compound of formula 1 can be measured using standard analytical techniques known in the art. […]
measurement_type: concentration at 144 h (ng/mL)
Answers are plain numbers, in ng/mL.

# input molecule: Cc1[nH]c(/C=C2\C(=O)Nc3ccc(F)cc32)c(C)c1C(=O)NC[C@H](O)CN1CCOCC1 ; wanted: its concentration at 144 h
2.94

###

# test_name: Phase I dose-escalating study, plasma pharmacokinetics in patients with solid tumor
# Assay type: in vivo, human
# assay_context: human, plasma, 100 mg, 100 mg QD Continuous (n = 4), nominal time 1 h; read-out: Mean plasma concentration following the last dose on cycle 1 day 28
measurement_type: concentration at 1 h

# input molecule: Cc1[nH]c(/C=C2\C(=O)Nc3ccc(F)cc32)c(C)c1C(=O)NC[C@H](O)CN1CCOCC1 [compound 1] ; wanted: its concentration at 1 h
232 ng/mL

###

# test_name: Phase I dose-escalating study, plasma pharmacokinetics in patients with solid tumor
# Type: in vivo, human
# assay_context: human, plasma, C1D1, across dose groups; read-out: mean terminal plasma half-life (t1/2) over 24 hours after dosing
measurement_type: half-life

# input molecule: Cc1[nH]c(/C=C2\C(=O)Nc3ccc(F)cc32)c(C)c1C(=O)NC[C@H](O)CN1CCOCC1 ; wanted: its half-life
648 to 1130 min

###

# test_name: Phase I dose-escalating study, plasma pharmacokinetics in patients with solid tumor
# Type: in vivo, human
# assay_context: human, plasma, 150 mg, 150 mg QD Continuous (n = 6), nominal time 0 h; read-out: Mean plasma concentration following the last dose on cycle 1 day 28
measurement_type: concentration at 0 h (ng/mL)
Give bare numbers, in ng/mL.

# input molecule: Cc1[nH]c(/C=C2\C(=O)Nc3ccc(F)cc32)c(C)c1C(=O)NC[C@H](O)CN1CCOCC1 [compound 1] ; wanted: its concentration at 0 h
124
